Give measured Bliss excess for each item. Keep answers brief.
- System: P30-OHK (B-Lymphoblastic Leukemia);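 further: after 72 h of two-drug dosing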
- procedure.details: Bliss excess, mean over the matrix (fraction); higher = more synergy
Numbers only.

{"compound": "CCN(CCO)CCCOc1ccc2c(Nc3cc(CC(=O)Nc4cccc(F)c4)[nH]n3)ncnc2c1 [AZD2811] + O=C(c1cc(Cc2n[nH]c(=O)c3ccccc23)ccc1F)N1CCN(C(=O)C2CC2)CC1 [Olaparib] (first compound max 1 µM, 7x7, partner max 10 µM)", "recorded.number": -0.04}

Moving on to another compound below.
Request: Could you please provide reported Bliss excess for CC1(C)CCC(CN2CCN(c3ccc(C(=O)NS(=O)(=O)c4ccc(NCC5CCOCC5)c([N+](=O)[O-])c4)c(Oc4cnc5[nH]ccc5c4)c3)CC2)=C(c2ccc(Cl)cc2)C1 [Venetoclax] + CN(C)CCCOc1ccc(-c2ccc3ncc4c(c3c2)n(C2CCOCC2)c(=O)n4C)cn1 [AZD0156] (first compound max 1 µM, 7x7, partner max 1 µM) ? Thanks!
Result: 0.0881

###

- System: ES6 (Ewing's Sarcoma)
- procedure.details: combination Emax (second highest fraction inhibited in the dose matrix, 72 h); higher = more inhibition; extreme values may be limits of the assay
test.readout: combination Emax
Give bare numbers.

{"molecule": "CN(CCO)CC[C@H](CSc1ccccc1)Nc1ccc(S(=O)(=O)NC(=O)c2ccc(N3CCC([C@@H](O)c4ccccc4-c4ccc(Cl)cc4)CC3)cc2)cc1S(=O)(=O)C(F)(F)F [AZD4320] + CS(=O)(=O)CCNCc1ccc(-c2ccc3ncnc(Nc4ccc(OCc5cccc(F)c5)c(Cl)c4)c3c2)o1 [Lapatinib] (first compound max 1 µM, 7x7, partner max 10 µM)", "combination Emax": 0.971}
{"molecule": "CN(CCO)CC[C@H](CSc1ccccc1)Nc1ccc(S(=O)(=O)NC(=O)c2ccc(N3CCC([C@@H](O)c4ccccc4-c4ccc(Cl)cc4)CC3)cc2)cc1S(=O)(=O)C(F)(F)F [AZD4320] + CCN(CCO)CCCOc1ccc2c(Nc3cc(CC(=O)Nc4cccc(F)c4)[nH]n3)ncnc2c1 [AZD2811] (first compound max 1 µM, 7x7, partner max 1 µM)", "combination Emax": 0.161}
{"molecule": "COc1nnc2ccc(N3CCC(c4ccc(OCCN5CCN(C)C(=O)[C@H]5C)cc4)CC3)nn12 [AZD5153] + C=CCn1c(=O)c2cnc(Nc3ccc(N4CCN(C)CC4)cc3)nc2n1-c1cccc(C(C)(C)O)n1 [AZD1775] (first compound max 1 µM, partner max 1 µM)", "combination Emax": 0.516}

Moving on to another molecule below.
Request: Could you please provide reported combination Emax for COc1nnc2ccc(N3CCC(c4ccc(OCCN5CCN(C)C(=O)[C@H]5C)cc4)CC3)nn12 [AZD5153] + CC1(C)CCC(CN2CCN(c3ccc(C(=O)NS(=O)(=O)c4ccc(NCC5CCOCC5)c([N+](=O)[O-])c4)c(Oc4cnc5[nH]ccc5c4)c3)CC2)=C(c2ccc(Cl)cc2)C1 [Venetoclax] (first compound max 1 µM, 7x7, partner max 1 µM) ? Thanks!
Result: 0.292

###

- Tested on: MDA-MB-415 (Breast Carcinoma)
- procedure.details: combination Emax (second highest fraction inhibited in the dose matrix, 72 h); higher = more inhibition; extreme values may be limits of the assay
test.readout: combination Emax

Here are 3 compounds together with their reported answers.
{"compound": "Cc1c2c(nn1C)CSCc1cc(n(C)n1)CSc1cc(c3ccccc3c1)OCCCc1c(C(=O)O)n(C)c3c-2c(Cl)ccc13 [AZD5991] + C[C@@H](Nc1cc(F)cc(F)c1)c1cc(C(=O)N(C)C)cc2c(=O)cc(N3CCOCC3)oc12 [AZD8186] (first compound max 1 µM, 7x7, partner max 3 µM)", "combination Emax": 0.931}
{"compound": "C=CCn1c(=O)c2cnc(Nc3ccc(N4CCN(C)CC4)cc3)nc2n1-c1cccc(C(C)(C)O)n1 [AZD1775] + Nc1ccn([C@@H]2O[C@H](CO)[C@@H](O)C2(F)F)c(=O)n1 [Gemcitabine] (first compound max 1 µM, partner max 0.3 µM)", "combination Emax": 0.58}
{"compound": "O=C(c1cc(Cc2n[nH]c(=O)c3ccccc23)ccc1F)N1CCN(C(=O)C2CC2)CC1 [Olaparib] + COc1nnc2ccc(N3CCC(c4ccc(OCCN5CCN(C)C(=O)[C@H]5C)cc4)CC3)nn12 [AZD5153] (first compound max 10 µM, 7x7, partner max 1 µM)", "combination Emax": 0.362}

Request: Could you please provide reported combination Emax for CN(C)CCCOc1ccc(-c2ccc3ncc4c(c3c2)n(C2CCOCC2)c(=O)n4C)cn1 [AZD0156] + O=C(c1cc(Cc2n[nH]c(=O)c3ccccc23)ccc1F)N1CCN(C(=O)C2CC2)CC1 [Olaparib] (first compound max 3 µM, partner max 3 µM) ? Thanks!
Result: 0.325
